- Tested on: CD69 production by B lymphocytes in human whole blood activated with goat F(ab')2 anti-human IgM
- assay-text: CD69 Whole Blood Assay (Example 907)
- Type: cell-based
- measurement-parameters: Lymphocyte; human whole blood, anti-IgM stimulated, 20 hour incubation, CD20 positive cells, FACS; read-out: CD69 Hu Blood FACS (IC70)
measured-property: IC70 (nM)

{"compound-structure-string": "CC1(C)Cc2cc3n(c2C1)CCN(c1nccc(-n2nc(C(N)=O)c4ccccc42)c1CO)C3=O", "test-value": 726}
{"compound-structure-string": "CC(C)(C)c1cc(F)c2c(=O)n(-c3nccc(-n4cc(C(N)=O)c(Nc5ccc(N6CCNCC6)cn5)n4)c3CO)ncc2c1", "test-value": 574}
{"compound-structure-string": "CC1(C)Cc2cc3n(c2C1)CCN(c1nccc(-n2cc(C(N)=O)c(Nc4ccccc4)n2)c1CO)C3=O", "test-value": 36.9}
{"compound-structure-string": "C[C@H]1CN(C2COC2)CCN1c1ccc(Nc2cn(-c3ccnc(N4CCn5c(cc6c5CC(C)(C)C6)C4=O)c3CO)nc2C(N)=O)nc1", "test-value": 6.4}
{"compound-structure-string": "CC1(C)Cc2cc3n(c2C1)CCN(c1nccc(-n2cc(NC(=O)C4CC4)c(C(N)=O)n2)c1CO)C3=O", "test-value": 47.4}
{"compound-structure-string": "CC(C)(C)c1cc(F)c2c(=O)n(-c3nccc(-n4cc(C(N)=O)c(Nc5ccc(Cl)cn5)n4)c3CO)ncc2c1", "test-value": 311}
{"compound-structure-string": "Cn1cc(Nc2nn(-c3ccnc(N4CCn5c(cc6c5CC(C)(C)C6)C4=O)c3CO)cc2C(N)=O)nn1", "test-value": 47.2}
{"compound-structure-string": "CC1(C)Cc2cc3n(c2C1)CCN(c1cccc(-n2cc(C(N)=O)c(Nc4ccccn4)n2)c1CO)C3=O", "test-value": 166}
{"compound-structure-string": "CC1(C)Cc2cc3n(c2C1)CCN(c1cccc(-n2cc(C(N)=O)c(Nc4ccncn4)n2)c1CO)C3=O", "test-value": 36.2}
{"compound-structure-string": "CC1(C)Cc2cc3n(c2C1)CCN(c1nccc(-n2cc(C(N)=O)c(NC(=O)C4CC4)n2)c1CO)C3=O", "test-value": 52.1}
{"compound-structure-string": "CC1(C)Cc2cc3n(c2C1)CCN(c1nccc(-n2cc(C(N)=O)c(NC(=O)[C@@H]4C[C@@H]4F)n2)c1CO)C3=O", "test-value": 100}
{"compound-structure-string": "Cn1cc(Nc2nn(-c3ccnc(-n4ncc5cc(C(C)(C)C)cc(F)c5c4=O)c3CO)cc2C(N)=O)nn1", "test-value": 77.3}
{"compound-structure-string": "C[C@H]1CN(C2COC2)CCN1c1ccc(Nc2nn(-c3cc(F)cc(N4CCn5c(cc6c5CC(C)(C)C6)C4=O)c3CO)cc2C(N)=O)nc1", "test-value": 30.4}
{"compound-structure-string": "Cn1cc(-c2nn(-c3cc(F)cc(-n4ncc5cc(C(C)(C)C)cc(F)c5c4=O)c3CO)cc2C(N)=O)cn1", "test-value": 5000}
{"compound-structure-string": "Cn1cc(-c2nn(-c3ccnc(-n4ncc5cc(C(C)(C)C)cc(F)c5c4=O)c3CO)cc2C(N)=O)cn1", "test-value": 268}

====

- target-system: full length human wildtype Btk (Homo sapiens, UniProt Q06187)
- Sequence (Q06187 whole entry): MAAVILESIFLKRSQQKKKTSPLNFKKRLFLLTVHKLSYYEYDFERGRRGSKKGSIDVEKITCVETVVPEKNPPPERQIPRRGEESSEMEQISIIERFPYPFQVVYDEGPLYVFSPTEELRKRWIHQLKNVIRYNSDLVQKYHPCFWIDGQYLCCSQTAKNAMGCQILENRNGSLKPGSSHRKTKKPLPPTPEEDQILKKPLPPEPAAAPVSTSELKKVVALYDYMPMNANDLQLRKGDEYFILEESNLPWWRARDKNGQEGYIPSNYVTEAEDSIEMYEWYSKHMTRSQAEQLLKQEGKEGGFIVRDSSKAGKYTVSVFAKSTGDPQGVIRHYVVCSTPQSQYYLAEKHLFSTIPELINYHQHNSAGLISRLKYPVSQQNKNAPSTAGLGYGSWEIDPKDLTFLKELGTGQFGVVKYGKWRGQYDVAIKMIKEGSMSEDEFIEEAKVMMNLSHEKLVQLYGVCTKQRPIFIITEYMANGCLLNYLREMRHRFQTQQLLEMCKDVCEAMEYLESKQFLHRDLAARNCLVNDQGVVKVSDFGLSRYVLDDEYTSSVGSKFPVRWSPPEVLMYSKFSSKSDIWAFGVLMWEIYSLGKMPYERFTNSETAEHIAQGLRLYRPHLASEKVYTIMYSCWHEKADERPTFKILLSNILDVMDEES
pKi: −log10 of the molar value.

{"compound-structure-string": "Cn1cc(-c2nn(-c3ccnc(-n4ncc5cc(C(C)(C)C)cc(F)c5c4=O)c3CO)cc2C(N)=O)cn1", "result-operator": "=", "pKi": 9.00}
{"compound-structure-string": "CC(C)(C)c1cc(F)c2c(=O)n(-c3nccc(-n4cc(C(N)=O)c(-c5cncc(S(C)(=O)=O)c5)n4)c3CO)ncc2c1", "result-operator": "<", "pKi": 6.30}
{"compound-structure-string": "CCC(=O)Nc1nn(-c2ccnc(N3CCn4c(cc5c4CC(C)(C)C5)C3=O)c2CO)cc1C(N)=O", "result-operator": "=", "pKi": 7.49}
{"compound-structure-string": "CC(C)(C)c1cc(F)c2c(=O)n(-c3nccc(-n4cc(C(N)=O)c(Nc5ccccn5)n4)c3CO)ncc2c1", "result-operator": "=", "pKi": 9.47}
{"compound-structure-string": "CC(C)(C)c1cc(F)c2c(=O)n(-c3nccc(-n4cc(C(N)=O)c(-c5cnn(C(F)F)c5)n4)c3CO)ncc2c1", "result-operator": "=", "pKi": 8.94}
{"compound-structure-string": "CC(C)Cn1cc(-c2nn(-c3ccnc(-n4ncc5cc(C(C)(C)C)cc(F)c5c4=O)c3CO)cc2C(N)=O)cn1", "result-operator": "=", "pKi": 7.57}
{"compound-structure-string": "CC(C)(C)c1cc(F)c2c(=O)n(-c3nccc(-n4cc(C(N)=O)c(-c5cnc(N)cn5)n4)c3CO)ncc2c1", "result-operator": "=", "pKi": 6.98}

====

Observed Ki, system full length human wildtype Btk (Homo sapiens, UniProt Q06187).

{"compound": "CC(=O)Nc1nn(-c2ccnc(N3CCn4c(cc5c4CC(C)(C)C5)C3=O)c2CO)cc1C(N)=O [Example 124]", "target-system": "full length human wildtype Btk (Homo sapiens, UniProt Q06187)", "Ki, nM": 13.8}
{"compound": "CN(C)CCNC(=O)c1cccc(-c2nn(-c3ccnc(-n4ncc5cc(C(C)(C)C)cc(F)c5c4=O)c3CO)cc2C(N)=O)c1 [Example 130]", "target-system": "full length human wildtype Btk (Homo sapiens, UniProt Q06187)", "Ki, nM": 43.8}
{"compound": "CN1CCN(c2cc(-c3nn(-c4ccnc(-n5ncc6cc(C(C)(C)C)cc(F)c6c5=O)c4CO)cc3C(N)=O)ccn2)CC1 [Example 136]", "target-system": "full length human wildtype Btk (Homo sapiens, UniProt Q06187)", "Ki, nM": 50.7}
{"compound": "CC1(C)Cc2cc3n(c2C1)CCN(c1nccc(-n2nc(C(N)=O)c4ccccc42)c1CO)C3=O [Example 108]", "target-system": "full length human wildtype Btk (Homo sapiens, UniProt Q06187)", "Ki, nM": 1.83}

====

Reported log10 of IC70 values for the following molecules.
- Tested on: CD69 production by B lymphocytes in human whole blood activated with goat F(ab')2 anti-human IgM
- assay-text: CD69 Whole Blood Assay (Example 907)
- Format: cell-based
- measurement-parameters: Lymphocyte; human whole blood, anti-IgM stimulated, 20 hour incubation, CD20 positive cells, FACS; read-out: CD69 Hu Blood FACS (IC70)
measured-property: log10 of IC70 (log10 of the value in µM)

{"compound-structure-string": "CCC(=O)Nc1nn(-c2ccnc(N3CCn4c(cc5c4CC(C)(C)C5)C3=O)c2CO)cc1C(N)=O", "log10 of IC70": -0.16}
{"compound-structure-string": "Cc1nn(C)cc1-c1nn(-c2ccnc(-n3ncc4cc(C(C)(C)C)cc(F)c4c3=O)c2CO)cc1C(N)=O", "log10 of IC70": 0.52}
{"compound-structure-string": "Cn1cc(Nc2nn(-c3cccc(N4CCn5c(cc6c5CC(C)(C)C6)C4=O)c3CO)cc2C(N)=O)nn1", "log10 of IC70": -1.49}
{"compound-structure-string": "CC1(C)Cc2cc3n(c2C1)CCN(c1nccc(-n2nc(C(N)=O)c4cccnc42)c1CO)C3=O", "log10 of IC70": 0.72}
{"compound-structure-string": "CC(C)(C)c1cc(F)c2c(=O)n(-c3nccc(-n4cc(C(N)=O)c(-c5cnn(C(F)F)c5)n4)c3CO)ncc2c1", "log10 of IC70": 0.15}
{"compound-structure-string": "CC1(C)Cc2cc3n(c2C1)CCN(c1nccc(-n2cc(C(N)=O)c(Nc4ccccn4)n2)c1CO)C3=O", "log10 of IC70": -0.90}
{"compound-structure-string": "C[C@H]1CN(C2COC2)CCN1c1ccc(Nc2nn(-c3ccnc(-n4ncc5cc(C(C)(C)C)cc(F)c5c4=O)c3CO)cc2C(N)=O)nc1", "log10 of IC70": -1.01}

====

- target-system: full length human wildtype Btk (Homo sapiens, UniProt Q06187)
pKi: −log10 of the molar value.

{"compound-structure-string": "CN1CCN(c2ccc(-c3nn(-c4ccnc(-n5ncc6cc(C(C)(C)C)cc(F)c6c5=O)c4CO)cc3C(N)=O)cn2)CC1", "result-operator": "=", "pKi": 7.81}
{"compound-structure-string": "CCCC(=O)Nc1nn(-c2ccnc(N3CCn4c(cc5c4CC(C)(C)C5)C3=O)c2CO)cc1C(N)=O", "result-operator": "=", "pKi": 7.47}
{"compound-structure-string": "CN1CCN(C(=O)c2ccc(-c3nn(-c4ccnc(-n5ncc6cc(C(C)(C)C)cc(F)c6c5=O)c4CO)cc3C(N)=O)cc2)CC1", "result-operator": "=", "pKi": 6.84}
{"compound-structure-string": "CC1(C)Cc2cc3n(c2C1)CCN(c1cccc(-n2cc(C(N)=O)c(Nc4ccncn4)n2)c1CO)C3=O", "result-operator": "=", "pKi": 9.60}
{"compound-structure-string": "CC(C)(C)c1cc(F)c2c(=O)n(-c3nccc(-n4cc(C(N)=O)c(-c5ccncc5)n4)c3CO)ncc2c1", "result-operator": "=", "pKi": 7.00}
{"compound-structure-string": "CC(C)(C)c1cc(F)c2c(=O)n(-c3nccc(-n4cc(C(N)=O)c(-c5cnc6[nH]ccc6c5)n4)c3CO)ncc2c1", "result-operator": "<", "pKi": 6.30}
{"compound-structure-string": "CC1(C)Cc2cc3n(c2C1)CCN(c1nccc(-n2cc(C(N)=O)c(N)n2)c1CO)C3=O", "result-operator": "=", "pKi": 8.61}
{"compound-structure-string": "CC1(C)Cc2cc3n(c2C1)CCN(c1nccc(-n2cc(C(N)=O)c(Nc4ccccn4)n2)c1CO)C3=O", "result-operator": "=", "pKi": 9.25}
{"compound-structure-string": "CC1(C)Cc2cc3n(c2C1)CCN(c1nccc(-n2cc(NC(=O)C4CC4)c(C(N)=O)n2)c1CO)C3=O", "result-operator": "=", "pKi": 9.03}
